Listing of recorded cells subjected to infection protected by entry.
test system: HSV-1; assay: MTT assay for antiviral activity against HSV-1 in Vero cells; format: cell-based, Herpes simplex virus; details: test concentration 2.5 μg/mL; Vero cells, 50 pfu virus, five days incubation
Non-standard residues stand in square brackets, D forms with d. Residues, ends and D or L forms follow the SMILES beside them. *: point of attachment. Myristoyl = CCCCCCCCCCCCCC(=O)*; Hyp = O=C(O)[CH]1C[CH](O)CN1; Leu(ol) = CC(C)C[CH](N)CO; X1 = CC(=O)OCC(CC(C)C)N*; Aib = CC(C)(N)C(=O)O
Please append the unit to your numeric answer.

Please review the following examples before continuing.
compound="CCCCCCCCCCCCCC(=O)NC(C)(C)C(=O)N1CC(OC(C)=O)CC1C(=O)NC(CC(C)C)C(=O)NC(C(=O)NC(CCC(N)=O)C(=O)NC(COC(C)=O)CC(C)C)C(C)C (stereo not shown) [Halovir D] (Myristoyl-[Aib][Hyp](Ac)LVQ-X1; configuration not given here)" measured_result=55%
compound="CCCCCCCCCCCCCC(=O)NC(C)(C)C(=O)N1CCCC1C(=O)NC(CC(C)C)C(=O)NC(C(=O)NC(CCC(N)=O)C(=O)NC(CO)CC(C)C)C(C)C (stereo not shown) [Halovir C] (Myristoyl-[Aib]PLVQ[Leu(ol)]; configuration not given here)" measured_result=33%
compound="CCCCCCCCCCCCCC(=O)NC(C)(C)C(=O)N1CC(O)CC1C(=O)NC(CC(C)C)C(=O)NC(C)C(=O)NC(CCC(N)=O)C(=O)NC(CO)CC(C)C (stereo not shown) [Halovir B] (Myristoyl-[Aib][Hyp]LAQ[Leu(ol)]; configuration not given here)" measured_result=40%

Memo: CCCCCCCCCCCCCC(=O)NC(C)(C)C(=O)N1CC(O)CC1C(=O)NC(CC(C)C)C(=O)NC(C(=O)NC(CCC(N)=O)C(=O)NC(CO)CC(C)C)C(C)C (stereo not shown) [Halovir A] (Myristoyl-[Aib][Hyp]LVQ[Leu(ol)]; configuration not given here) , reported cells subjected to infection protected: 50%

Every entry's value here was drawn from patent US6458766B1.
